Target: human VDR receptor (Homo sapiens, UniProt P11473)
Construct: expressed in transfected cells; host or cells: HeLa
Sequence (P11473 1-427): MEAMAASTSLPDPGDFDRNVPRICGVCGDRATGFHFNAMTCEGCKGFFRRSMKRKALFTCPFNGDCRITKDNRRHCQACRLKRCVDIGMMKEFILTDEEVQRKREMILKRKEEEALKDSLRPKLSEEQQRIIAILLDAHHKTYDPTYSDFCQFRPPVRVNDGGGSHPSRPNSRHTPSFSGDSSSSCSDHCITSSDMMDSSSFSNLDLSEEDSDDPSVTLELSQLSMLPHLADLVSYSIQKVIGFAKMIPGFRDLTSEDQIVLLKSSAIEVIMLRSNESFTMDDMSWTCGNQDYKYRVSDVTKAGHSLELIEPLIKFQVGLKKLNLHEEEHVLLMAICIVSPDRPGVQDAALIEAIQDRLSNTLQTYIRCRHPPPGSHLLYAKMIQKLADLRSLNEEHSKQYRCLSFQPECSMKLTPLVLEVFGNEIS
Assay: VDR agonist activity, co-transfection of human VDR expression vector and p240Hase-CAT reporter in HeLa cells
Type: cell-based
Conditions: HeLa cell line, CAT reporter under rat 24-hydroxylase promoter, 18 hours treatment, ELISA; read-out: AC 50 (dose required to achieve 50% of the maximum activity of the product)
property-label: AC50

smiles_notation=CCC(O)(CC)c1ccc(-c2cccc(COc3ccc(CO)c(CO)c3)c2)c(C)c1 reported="451 nM"
smiles_notation=CCC(O)(CC)c1ccc(-c2cc(OCc3ccc(CO)c(CO)c3)ccc2C)c(C)c1 reported="46 nM"
smiles_notation=CCC(O)(CC)c1ccc(-c2cc(OCc3ccc(CO)c(CO)c3)ccc2C)cc1 reported="133 nM"

###

Target: human VDR receptor (Homo sapiens)
Construct: expressed in transfected cells; host or cells: HeLa
Test: VDR agonist activity, co-transfection of human VDR expression vector and p240Hase-CAT reporter in HeLa cells
Format: cell-based
Conditions: HeLa cell line, CAT reporter under rat 24-hydroxylase promoter, 18 hours treatment, ELISA; read-out: AC 50 (dose required to achieve 50% of the maximum activity of the product)
Quick reference: AC50 of the listed items.
property-label: AC50 (nM)

smiles_notation=CCC(O)(CC)c1ccc(-c2cccc(OCc3ccc(CO)c(CO)c3)c2C)c(C)c1 units_text=nM reported=291
smiles_notation=CCC(O)(CC)c1ccc(-c2cccc(SCc3ccc(CO)c(CO)c3)c2)c(C)c1 units_text=nM reported=2040
smiles_notation=CCC(O)(CC)c1ccc(-c2cccc(OCc3ccc(CO)c(CO)c3)c2)c(C)c1 units_text=nM reported=470
smiles_notation=CCC(O)(CC)c1cc(C)c(-c2cc(OCc3ccc(CO)c(CO)c3)ccc2C)c(C)c1 units_text=nM reported=194
